test system: P. falciparum female gametocytes; assay: P. falciparum Dual Gamete Formation Assay (PfDGFA), female readout (Pfs25-positive female gametes); format: cell-based, Plasmodium falciparum NF54; conditions: Plasmodium falciparum; 2µM, 24h preincubation with gametocytes; average of replicates; read-out: Average inhibition female (%)
Binary classification by inhibition at 2 µM, with 60% as an inclusive lower bound for Satisfied; all other cases are Not satisfied.

compound	subject-of-test	label
CN(C)CCOc1ccc(NC(=O)NC(C)(C)c2nc(-c3ccc(Cl)c(O)c3)c(-c3ccncc3)[nH]2)cc1.Cl	P. falciparum female gametocytes	Satisfied
O=C(c1ccc([N+](=O)[O-])o1)N1CCC(Cc2ccc(C(F)(F)F)cc2)CC1	P. falciparum female gametocytes	Not satisfied
Cc1ccc(S(=O)(=O)N(CCCNCc2cccc(O)c2)c2ccccc2)cc1	P. falciparum female gametocytes	Satisfied
C=CCNc1cc(-c2ccccn2)nc(-c2ccccn2)n1	P. falciparum female gametocytes	Not satisfied
COc1ccc2nc(N=C3NC4(c5ccccc5)NC(=Nc5nc6ccc(OC)cc6[nH]5)NC4(c4ccccc4)N3)[nH]c2c1.O=C(O)C(F)(F)F (stereo not shown)	P. falciparum female gametocytes	Not satisfied
COCCCNC(=S)NN=C(C)c1ccccn1	P. falciparum female gametocytes	Satisfied

====

compounds and their reported % inhibition female (individual replicates) R3
tested on: P. falciparum female gametocytes; experiment: P. falciparum Dual Gamete Formation Assay (PfDGFA), female readout (Pfs25-positive female gametes); format: cell-based, Plasmodium falciparum NF54; conditions: 2µM, 24h preincubation with gametocytes prior to induction of gametogenesis; replicate R3
measured-parameter: % inhibition female (individual replicates) R3

input-smiles	subject-of-test	assay-value
C[C@@H](Oc1cc(-n2cnc3ccc(OCC4CCN(S(C)(=O)=O)CC4)cc32)sc1C(N)=O)c1ccccc1C(F)(F)F	P. falciparum female gametocytes	19.8%
COc1c(CNCCCCCCNCc2c(OC)c(OC)c3ccccc3c2OC)c(OC)c2ccccc2c1OC.CS(=O)(=O)O	P. falciparum female gametocytes	14.5%
C/C=C/COc1ccc2ccccc2c1CNCCCCCCCCNCc1c(OC/C=C/C)ccc2ccccc12.CS(=O)(=O)O.O	P. falciparum female gametocytes	6.4%

====

test system: P. falciparum male gametocytes; experiment: P. falciparum Dual Gamete Formation Assay (PfDGFA), male readout (exflagellation); format: cell-based, Plasmodium falciparum NF54; conditions: PfDGFA at 2µM, 24h preincubation with gametocytes prior to induction of gametogenesis; replicate R3
measured-parameter: % inhibition male (individual replicates) R3 (%)

compound	unit-tag	assay-value
Cc1ccc(-c2nnc3c4ccccc4c(C)nn23)cc1S(=O)(=O)N1CCN(CCO)CC1 [TCMDC-124482]	%	-2.0
N#CCSc1nnc(-c2ccccc2)c2ccccc12 [TCMDC-123867]	%	10.5
Cc1cc(F)ccc1-c1nc(Nc2ccncc2)c2ccn(C)c2n1 [TCMDC-141231]	%	-17.7

====

system: P. falciparum female gametocytes; test: P. falciparum Dual Gamete Formation Assay (PfDGFA), female readout (Pfs25-positive female gametes); assay type: cell-based, Plasmodium falciparum NF54; conditions: PfDGFA at 2µM, 24h preincubation with gametocytes; replicate R1
Entry flag: true (1) if % inhibition female (individual replicates) R1 reaches 20%; false (0) if it does not.

input-smiles	subject-of-test	label
C#CCCOc1ccc2ccccc2c1CNCCCCCCNCc1c(OCCC#C)ccc2ccccc12	P. falciparum female gametocytes	true (1)
CNCCNCc1ccc(-c2ccc(-c3nc4cc(F)ccc4[nH]3)s2)cc1.O=C(O)C(F)(F)F	P. falciparum female gametocytes	false (0)
CCCOc1ccc2ccccc2c1CNCCCCCCNCc1c(OCCC)ccc2ccccc12.CS(=O)(=O)O	P. falciparum female gametocytes	true (1)
COc1ccc(-c2cnc3[nH]cc(-c4ccncc4)c3c2)cc1OC	P. falciparum female gametocytes	false (0)
COc1ccc(CNCCCCCCNCc2ccc(OC)c3ccccc23)c2ccccc12.Cl	P. falciparum female gametocytes	true (1)

====

test system: P. falciparum female gametocytes; test: P. falciparum Dual Gamete Formation Assay (PfDGFA), female readout (Pfs25-positive female gametes); assay type: cell-based, Plasmodium falciparum NF54; settings: 2µM, 24h preincubation; number of replicates with >50% inhibition in the female readout

input-smiles	subject-of-test	HitlevelF
O=C(Nc1cccc(-c2nn3ncccc3c2-c2ccnc(Nc3cccc(-c4cnco4)c3)n2)c1)c1c(F)cccc1F	P. falciparum female gametocytes	0
COc1ccc(CNC2Cc3ccccc3C2)cc1-c1ccc(OC)c(S(=O)(=O)NCCN2CCCC2)c1.O=C(O)C(F)(F)F	P. falciparum female gametocytes	1
CN1CCN(Cc2cccc(-c3ccc4c(Nc5ccc(Oc6ccccc6)cc5)ccnc4c3)c2)CC1	P. falciparum female gametocytes	0
N#Cc1ccc(Cn2ccc3c4c(N)nc(N)nc4ccc32)cc1	P. falciparum female gametocytes	4
C/C=C/COc1ccc2ccccc2c1CNCCCCCCCCNCc1c(OC/C=C/C)ccc2ccccc12.CS(=O)(=O)O.O	P. falciparum female gametocytes	0
CCS(=O)(=O)c1ccc(-c2cnc3[nH]cc(-c4ccc(N)cc4)c3c2)cc1	P. falciparum female gametocytes	0
CNCCNCc1cccc(-c2ccc(-c3nc4cc(C(F)(F)F)ccc4[nH]3)s2)c1.O=C(O)C(F)(F)F	P. falciparum female gametocytes	0
Br.CCCCCCCNCCNc1cc(C)nc2ccccc12	P. falciparum female gametocytes	0
NCc1cccc(-c2ccccc2CNC2CCN(Cc3ccccc3)CC2)c1.O=C(O)C(F)(F)F	P. falciparum female gametocytes	0
COc1ccc2nc(-c3cc(-c4ccc(NC(C)=O)cc4)cnc3N)[nH]c2c1	P. falciparum female gametocytes	0
CCc1c(CCNCCCCCCNCCc2ccc3c(c2C)OCO3)ccc2c1OCO2.Cl	P. falciparum female gametocytes	1
Cl.N#Cc1c(F)cc(N2CCC(NCC[C@H](N)Cc3ccc(F)c(F)c3)CC2)cc1F	P. falciparum female gametocytes	0

====

tested on: HepG2 cells; test: HepG2 cytotoxicity counter-screen; settings: cytotoxic activity against HepG2 cells
measured-parameter: log10 of Tox50 (log10 of the value in µM)

compound	log10 of Tox50
Nc1cc(C=Cc2ccc([N+](=O)[O-])s2)nc2ccccc12	0.25
CCOC(=O)c1cc2c(CCN3C(=O)c4ccccc4C3=O)cn(C)c2cc1-c1ccncc1	0.20
CN1CCN(CCCNCc2ccc(Nc3nccc(Nc4ccc(Oc5ccccc5)cc4)n3)cc2)CC1	0.90
CCS(=O)(=O)Nc1ccc2c(c1)/C(=C(/Nc1ccc(CN3CCCCC3)cc1)c1ccccc1)C(=O)N2	-0.25
COc1ccc(CCNCCCCCCNCCc2ccc(Cl)cc2)c(Cl)c1OC.Cl	0.69
CCN(CC)CCN(Cc1ccc(-c2ccc(C(F)(F)F)cc2)cc1)C(=O)Cn1cc(Cc2cnn(C)c2)c(=O)nc1/C=C/c1ccc(F)cc1.O=C(O)C(O)C(O)C(=O)O	1.21
CCC1=C[C@@H]2CN(C1)Cc1c([nH]c3ccccc13)[C@@](C(=O)OC)(c1cc3c(cc1OC)N(C)[C@H]1[C@@](O)(C(=O)OC)[C@H](O)[C@]4(CC)C=CCN5CC[C@]31[C@@H]54)C2.O=S(=O)(O)O	1.75
COc1ccc2nc(-c3cc(-c4ccc(NC(C)=O)cc4)cnc3N)[nH]c2c1	0.49
CNC(=S)NN=C(C)c1ccccn1	-0.89
Fc1ccc2[nH]c(-c3ccc(-c4ccc(CN5CCC(CCN6CCCCC6)CC5)cc4)s3)nc2c1.O=C(O)C(F)(F)F	0.68
COc1cc2nc(N3CCC(CNCc4ccc(-c5ccc(C(F)(F)F)cc5)cc4)CC3)nc(N)c2cc1OC	0.31
CC(Cc1ccc(NC(=O)c2ccc(CNCCCCc3ccccc3)cc2)cc1)NCCc1cccc(Cl)c1.Cl (centres unmarked)	0.58
[O-][s+]1c(Cl)c(-c2ccc(Cl)cc2)c2ccc(Cl)cc21 (centres unmarked)	1.25
C=CCNc1cc(-c2ccccn2)nc(-c2ccccn2)n1	1.10
Cl.Clc1ccc(OCCC2CCN(CCCCCCCN3CCC(CCOc4ccc(Cl)c(Cl)c4)CC3)CC2)cc1Cl	0.53
CC(CO)(CO)NCc1cc2c3ccccc3c(CNC(C)(CO)CO)cc2c2ccccc12.CS(=O)(=O)O	1.12
COc1cccc(C23NC(=Nc4nc5ccccc5[nH]4)NC2(c2cccc(OC)c2)NC(=Nc2nc4ccccc4[nH]2)N3)c1 (centres unmarked)	1.51
Nc1cc(C=Cc2ccc([N+](=O)[O-])o2)nc2ccccc12	0.41
Cc1cc(Nc2ccncc2)n2nc(C)c(-c3ccc(Cl)cc3)c2n1	1.82
CC(C)(CN)c1nc(-c2ccc(Cl)c(O)c2)c(-c2ccncc2)[nH]1.Cl	1.25
CS(=O)(=O)O.FC(F)(F)COc1c(CCNCCCCNCCc2ccc3ccccc3c2OCC(F)(F)F)ccc2ccccc12	0.42
COc1ccc(Nc2ncc(OC)c(Nc3ccccc3C(N)=O)n2)cc1N1CCN(C)CC1.O=CO	0.72
Cc1ccc(S(=O)(=O)N(CCCNCc2cccc(O)c2)c2ccccc2)cc1	1.50
CC(C)Oc1ccc2ccccc2c1CNCCCCCCNCc1c(OC(C)C)ccc2ccccc12.CS(=O)(=O)O	0.51
COc1cc2nc(NCc3cccc(CNC(=O)c4ccc(-c5ccc(C(C)=O)cc5)cc4)c3)nc(N)c2cc1OC.O=C(O)C(F)(F)F	0.80
O=C(O)C(F)(F)F.O=c1[nH]ccc2nc(N[C@@H]3CCNC3)nc(Nc3cc(Cl)cc(Cl)c3)c12	0.87
